tested on: DMS 273 small cell lung; assay: NCI tumour cell line growth inhibition, 48 h
readout.type: TGI

# compound, TGI
data = [
    ("O=C1CC(S(=O)(=O)O)C=C1Nc1cccc(Cl)c1 (configuration not stated)", "> 100 µM"),
    ("COc1c(Cl)cc(NC(=S)C#N)cc1Cl", "83.2 µM"),
    ("C[C@]12CCC3[C@@H](CC[C@@H]4c5nonc5CC[C@]34C)C1C/C(=N/O)C2=O (some centres not stated)", "> 100 µM"),
    ("COc1ccccc1Cc1nc(-c2ccccc2)nn(C2OC(COC(C)=O)C(OC(C)=O)C(OC(C)=O)C2OC(C)=O)c1=S (configuration not stated)", "> 79.6 µM"),
    ("CCOC(=O)C(=Cc1cccnc1C)C(=O)OCC", "14 µM"),
    ("COC(=O)CCC(NC(=S)N/N=C/c1ccco1)C(=O)OC (configuration not stated)", "> 100 µM"),
]

// next entry
For the compound COc1ccc(C(C#N)Cc2cc(OC)c(OC)c(OC)c2)cc1 (configuration not stated) , give its reported TGI. > 100 µM
